- System: Plasmodium berghei
- experiment: Screen against P. berghei liver stage (PbLuc), transformed with Luciferase, at 10uM
- Type: functional, HepG2
- test settings: tested at 10 uM
Out of some 69,000 compounds screened, about 8,600 (12%) showed an effect of 50% or more. The list comes from a sample in which strong results are over-represented; it also holds close analogues and randomly drawn compounds.
Classify as follows. Reported INHIBITION greater than or equal to 40%: true (1). Reported INHIBITION below: false (0).

See these solved cases before continuing.
compound	qualitative label
OC1CCN(c2ccc(CNc3nc4ccccc4s3)cc2F)CC1	true (1)
CC1CN(C)CCN1C(=O)c1cnn(-c2cccc(Cl)c2)c1 (configuration not stated)	true (1)
CC1CN(C)CCN1C(=O)c1cnn(-c2ccc(Cl)cc2)c1 (configuration not stated)	true (1)

Dear colleague, could you confirm whether CC1CN(C)CCN1C(=O)c1cnc2c(cnn2C2CCCC2)c1 (configuration not stated) has INHIBITION at or above 40%?
false (0)

Dear colleague, could you confirm whether CC(O)CN1CCN(C(=O)c2cnn(-c3ccc(Cl)cc3)c2)CC1 (configuration not stated) has INHIBITION at or above 40%?
false (0)

Dear colleague, could you confirm whether OC1CCN(c2ccc(CNc3nc4ccccc4o3)cc2F)CC1 has INHIBITION at or above 40%?
false (0)

Dear colleague, could you confirm whether Cc1nccn1-c1cccc(C2CCCN(C3CCCC3)C2)n1 (configuration not stated) has INHIBITION at or above 40%?
false (0)

Dear colleague, could you confirm whether CC[C@@]1(O)CCN(C(=O)c2ccc(-n3cnnc3)cc2)C[C@H]1O has INHIBITION at or above 40%?
false (0)
